experiment: NCI Yeast Anticancer Drug Screen. Data for the wt1 strain (AID 149); conditions: S. cerevisiae wt1 strain (SPY 50644) growth inhibition; at 100.0 µM
The panel holds about 79,000 compounds, 15% with a hit somewhere; the sample as a whole holds those more often. Calls of active or inactive are those of the source. No stated cut-off is given here; in the data, active means growth inhibition above about 70%; inactive means the rest.
Labels: Yes (active), No (inactive)

| compound | answer label |
| --- | --- |
| O=C1CSC(c2cccc(Cl)c2)N1c1ccc(-c2ccc(-n3c(-c4ccccc4)nc4ccccc4c3=O)cc2)cc1 (stereo not given) | No |
| COC(=O)C1=C(C(=O)OC)C(C(=O)OC)C(C(=O)OC)C(C(=O)OC)(C(=O)OC)C(C(=O)OC)=C1C(=O)OC (stereo not given) | No |
| O=C(O)c1cc2ccccc2c2c1C(=O)c1ccccc1-2 | Yes |
| COc1cc(/C=C2\NC(=O)N(/C=C3\C(=O)Oc4ccccc4C3=O)C2=O)ccc1O | Yes |
| O=C(Nc1ccc(Cl)cc1)Nc1nnc2nc(C(C(=O)c3cccc([N+](=O)[O-])c3Cl)c3nc4nnc(NC(=O)Nc5ccc(Cl)cc5)n4[nH]c3=O)c(=O)[nH]n12 | No |
| COc1ccc(C(=O)Oc2ccccc2Br)cc1 | No |
| Cc1nc2ccccc2nc1NNc1ccccc1 | No |
| Cc1c(C(C)C)cc(OCCO)cc1C(C)C | No |
| CC1OC(O[C@H]2/C=C/C=C/C=C/C=C/C=C/C=C/C=C/[C@H](C)[C@@H](O)[C@@H](C)[C@H](C)OC(=O)C[C@H](O)C[C@H](O)CC[C@@H](O)[C@H](O)C[C@H](O)C[C@]3(O)C[C@H](O)[C@@H](C(=O)O)[C@H](C2)O3)C(O)C(N)C1O (stereo not given in full) | Yes |
| CCCCCCCCCCCCCCCCOP(=O)(O)OCC(N)C(=O)O (stereo not given) | Yes |
| O=[N+]([O-])c1cc[n+]([O-])cc1 | Yes |
| Cc1c2ccnc(C(=O)NCCN(C)C)c2cc2c3cc(O)ccc3n(C)c12 | No |
| C(=Nc1ccc(-c2cc(-c3ccccc3)nc3ccc4ccccc4c23)cc1)c1ccccc1 | No |
| Cc1ccccc1N=Cc1cc(Cl)ccc1O | Yes |
| CCc1cc(O)c(Cl)c(C)c1Cl | Yes |
| CC(C)(C)c1ccc(NS(=O)(=O)c2ccc(N)cc2)cc1 | No |
| O=c1[nH]c(-c2ccccc2)nc2c1sc1nc3ccccc3n12 | No |
| CCCCN(CCCC)C(=O)/C=C/c1ccccc1 | Yes |
| CCN(CC)CCN(C)CCc1ccc(Br)cc1 | Yes |
| Cc1cc(O)c(C(C)C)cc1C1(c2cc(C(C)C)c(O)cc2C)OC(=O)c2ccccc21 | No |
